TARGET SYSTEM: Angiotensin II receptor (Rattus norvegicus) (UniProt P29089+P25095+P35351)
PROCEDURE TEXT: Duration of action as time for pressor response to fall below 30% for a single bolus by intravenous dose
Format: functional, organism-based
QUANTITY: Duration (h)

// below: answered compounds
COMPOUND | UNITS LABEL | Duration
CCCCc1nc2ccc(NC(=O)OCc3ccccc3)cc2c(=O)n1Cc1ccc(-c2ccccc2-c2nn[nH]n2)cc1 | h | 1
CCCCc1nc2cc(OC)c(OC)cc2c(=O)n1Cc1ccc(-c2ccccc2-c2nn[nH]n2)cc1 | h | 0.2
CCCCc1nc2ccc(N)cc2c(=O)n1Cc1ccc(-c2ccccc2-c2nn[nH]n2)cc1 | h | 4.5

[a] CCCCc1nc2ccc([S+](C)[O-])cc2c(=O)n1Cc1ccc(-c2ccccc2-c2nn[nH]n2)cc1 (configuration not stated)
[b] CCCCc1nc2ccc(S(C)(=O)=O)cc2c(=O)n1Cc1ccc(-c2ccccc2-c2nn[nH]n2)cc1
### Prompt Problem: Given the entries a and b , determine which has the lower reported Duration. // output: label of the selected item
### Response b
(b: 0.5 h, a: 1.8 h)
